biological target: UniProt Q7Z2W7; assay: Assay on TRPM8 modulators: calcium imaging (Fluo-4, Flexstation 3) in HEK293 cell line stably expressing hTRPM8; details: HEK293 cells stably expressing hTRPM8; Fluo-4 calcium imaging; sigmoidal dose-response fit; read-out: EC50 value (TRPM8 agonist, calcium influx)
Sequence (Q7Z2W7 whole entry): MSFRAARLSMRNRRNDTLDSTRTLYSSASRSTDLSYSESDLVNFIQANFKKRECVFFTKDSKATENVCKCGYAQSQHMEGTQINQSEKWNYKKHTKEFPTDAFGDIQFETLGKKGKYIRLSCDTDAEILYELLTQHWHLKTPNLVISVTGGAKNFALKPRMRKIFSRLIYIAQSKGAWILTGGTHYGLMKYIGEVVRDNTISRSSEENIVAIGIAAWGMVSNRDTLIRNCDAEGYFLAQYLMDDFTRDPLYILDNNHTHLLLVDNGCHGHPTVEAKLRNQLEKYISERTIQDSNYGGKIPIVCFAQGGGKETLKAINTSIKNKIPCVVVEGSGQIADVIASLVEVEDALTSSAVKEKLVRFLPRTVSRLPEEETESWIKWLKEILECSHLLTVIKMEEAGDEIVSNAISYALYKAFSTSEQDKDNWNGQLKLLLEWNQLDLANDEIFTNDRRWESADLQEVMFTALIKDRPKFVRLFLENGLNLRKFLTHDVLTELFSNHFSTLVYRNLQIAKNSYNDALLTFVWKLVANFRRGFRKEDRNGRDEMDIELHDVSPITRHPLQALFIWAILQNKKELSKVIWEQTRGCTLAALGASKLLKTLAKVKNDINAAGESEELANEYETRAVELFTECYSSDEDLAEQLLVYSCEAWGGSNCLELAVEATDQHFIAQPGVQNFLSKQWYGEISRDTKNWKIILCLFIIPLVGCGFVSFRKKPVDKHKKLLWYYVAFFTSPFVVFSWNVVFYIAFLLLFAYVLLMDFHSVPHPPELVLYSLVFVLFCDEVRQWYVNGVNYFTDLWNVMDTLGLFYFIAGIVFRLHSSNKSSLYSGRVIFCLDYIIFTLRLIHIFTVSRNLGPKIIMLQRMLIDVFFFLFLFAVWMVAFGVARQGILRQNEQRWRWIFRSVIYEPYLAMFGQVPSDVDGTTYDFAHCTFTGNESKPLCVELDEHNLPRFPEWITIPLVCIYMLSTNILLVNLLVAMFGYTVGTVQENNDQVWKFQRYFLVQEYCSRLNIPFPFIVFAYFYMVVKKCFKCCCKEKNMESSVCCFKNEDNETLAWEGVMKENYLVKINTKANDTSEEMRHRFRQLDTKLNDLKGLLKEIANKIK
pEC50: −log10 of the molar value.
recorded_metric: pEC50

Req: State the recorded pEC50 for this entry: CSC(C)C(=O)N1CCCCC1c1ncc(-c2ccc(C)cc2)[nH]1.O=C(O)C(=O)O (stereo not shown)
Resp: > 8.00
